Tested on: HeLa Kyoto;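 note: synchronized HeLa Kyoto cells, proteins quantified by TMT10plex mass spectrometry, three biological replicates, mitosis taken 0.5 h after nocodazole release, G1/S directly after double thymidine block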
Measurement Notes: thermal stability score vs G1/S (z-score of summed log2 fold changes over temperatures); higher = more thermally stable than in G1/S
Condition Info: cell cycle stage: mitosis
Measured Quantity: thermal stability score
Respond with the number and no other words.

Look over these answered cases.
MAAPQDVHVRICNQEIVKFDLEVKALIQDIRDCSGPLSALTELNTKVKEKFQQLRHRIQDLEQLAKEQDKESEKQLLLQEVENHKKQMLSNQASWRKANLTCKIAIDNLEKAELLQGGDLLRQRKTTKESLAQTSSTITESLMGISRMMAQQVQQSEEAMQSLVTSSRTILDANEEFKSMSGTIQLGRKLITKYNRRELTDKLLIFLALALFLATVLYIVKKRLFPFL [BNIP1] : 0.444
MGCTVSAEDKAAAERSKMIDKNLREDGEKAAREVKLLLLGAGESGKSTIVKQMKIIHEDGYSEEECRQYRAVVYSNTIQSIMAIVKAMGNLQIDFADPSRADDARQLFALSCTAEEQGVLPDDLSGVIRRLWADHGVQACFGRSREYQLNDSAAYYLNDLERIAQSDYIPTQQDVLRTRVKTTGIVETHFTFKDLHFKMFDVGGQRSERKKWIHCFEGVTAIIFCVALSAYDLVLAEDEEMNRMHESMKLFDSICNNKWFTDTSIILFLNKKDLFEEKITHSPLTICFPEYTGANKYDEAASYIQSKFEDLNKRKDTKEIYTHFTCATDTKNVQFVFDAVTDVIIKNNLKDCGLF [GNAI2] : 0.061

Problem: Data request, read-out thermal stability score, for MSCAGAAAAPRLWRLRPGARRSLSAYGRRTSVRFRSSGMTLDNISRAAVDRIIRVDHAGEYGANRIYAGQMAVLGRTSVGPVIQKMWDQEKDHLKKFNELMVTFRVRPTVLMPLWNVLGFALGAGTALLGKEGAMACTVAVEESIAHHYNNQIRTLMEEDPEKYEELLQLIKKFRDEELEHHDIGLDHDAELAPAYAVLKSIIQAGCRVAIYLSERL [COQ7]
Result: -0.639

Where do the numbers come from? From the supplement of paper PMC5998384.
